The reported measurements were obtained from patent US12552800B2.

I'd be grateful if you could share measured Ki for these entries.
System: PD brain-derived a-syn aggregates (Homo sapiens)
Construct: from tissue; host or cells: human PD donor brain, sarkosyl-insoluble 100,000 x g pellet
Procedure Details: Micro-radiobinding competition assay against Example-1 [^3H-1] (Table 8)
Format: binding
Particulars: competition over Example-1 [^3H-1]
Answers without a unit are incomplete; give the number and then its unit.

Req: Lab note: need Ki for O=C1c2cn(-c3ccc(N4CC[C@H](F)C4)nc3)nc2CN1c1cccnc1 on PD brain-derived a-syn aggregates (Homo sapiens), anyone have it?
Resp: 57 nM

Req: Reported Ki for PD brain-derived a-syn aggregates (Homo sapiens), given Cc1cncc(N2Cc3nn(-c4ccc(N5CC[C@@H](F)C5)nc4)cc3C2=O)c1 ?
Resp: 149 nM

Req: # value lookup — system PD brain-derived a-syn aggregates (Homo sapiens), readout Ki, item O=C1c2cn(-c3ccc(N4CC[C@H](F)C4)nc3)nc2CN1c1ncccc1O
Resp: 45 nM

Req: Can you look up Ki on PD brain-derived a-syn aggregates (Homo sapiens) for O=C1c2cn(-c3ccc(N4CC[C@H](F)C4)nc3)nc2CN1c1ccccn1 ?
Resp: 19 nM

Req: // map COc1cncc(N2Cc3nn(-c4ccc(N5CC[C@@H](F)C5)nc4)cc3C2=O)c1 to recorded Ki (system: PD brain-derived a-syn aggregates (Homo sapiens))
Resp: 84 nM

Req: Give PD brain-derived a-syn aggregates (Homo sapiens) Ki for O=C1c2cn(-c3ccc(N4CC[C@H](F)C4)nc3)nc2CN1c1cccnn1
Resp: 226 nM

Req: Short answer please: Ki, PD brain-derived a-syn aggregates (Homo sapiens), entry O=C1c2cn(-c3ccc(N4CC[C@H](F)C4)nc3)nc2CN1c1ccc(O)nc1
Resp: 311 nM
